- Tested target: androgen receptor (AR) (Homo sapiens, UniProt P10275, T878A)
- Construct: LNCaP cells were transiently transfected with the PSA (6.1 kb)-luciferase reporter for 24 h; endogenous in cells; host or cells: LNCaP
- Sequence (P10275 whole entry T878A): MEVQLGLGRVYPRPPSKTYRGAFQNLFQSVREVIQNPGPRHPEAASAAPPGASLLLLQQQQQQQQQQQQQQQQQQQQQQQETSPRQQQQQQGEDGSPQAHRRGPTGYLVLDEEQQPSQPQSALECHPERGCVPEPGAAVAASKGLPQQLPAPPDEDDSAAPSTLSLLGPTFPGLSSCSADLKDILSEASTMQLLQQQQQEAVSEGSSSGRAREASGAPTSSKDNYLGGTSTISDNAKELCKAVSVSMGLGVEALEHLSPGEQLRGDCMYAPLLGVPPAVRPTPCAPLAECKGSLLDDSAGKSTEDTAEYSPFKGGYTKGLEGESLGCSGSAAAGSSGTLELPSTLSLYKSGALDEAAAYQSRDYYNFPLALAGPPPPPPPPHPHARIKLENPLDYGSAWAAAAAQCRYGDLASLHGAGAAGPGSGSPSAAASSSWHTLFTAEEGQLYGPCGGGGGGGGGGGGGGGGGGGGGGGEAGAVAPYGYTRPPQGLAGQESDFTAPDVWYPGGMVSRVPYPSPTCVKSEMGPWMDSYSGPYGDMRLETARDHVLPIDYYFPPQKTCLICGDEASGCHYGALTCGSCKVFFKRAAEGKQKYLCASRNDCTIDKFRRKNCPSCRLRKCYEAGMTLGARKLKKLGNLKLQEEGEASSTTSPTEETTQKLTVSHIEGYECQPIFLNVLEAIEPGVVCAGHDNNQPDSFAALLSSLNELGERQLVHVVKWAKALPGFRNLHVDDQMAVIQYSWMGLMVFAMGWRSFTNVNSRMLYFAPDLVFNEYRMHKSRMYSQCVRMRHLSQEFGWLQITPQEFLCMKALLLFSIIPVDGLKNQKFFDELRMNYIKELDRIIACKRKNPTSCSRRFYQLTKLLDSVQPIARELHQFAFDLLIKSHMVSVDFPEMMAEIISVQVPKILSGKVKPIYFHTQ
- Procedure summary: Androgen-induced PSA (6.1 kb)-luciferase reporter assay in LNCaP cells
- Type: cell-based
- Settings: LNCaP cells transfected with PSA (6.1 kb)-luciferase reporter, R1881 1 nM, 24 h; read-out: PSA-Luc IC50 Range
Endpoint label: IC50

CC(Oc1ccc(C(C)(C)c2cc(Cl)c(OCCCl)c(C#N)c2)cc1)c1ncoc1S(C)(=O)=O (stereo not shown) [Compound A79]
< 500 nM

Given item CCS(=O)(=O)Nc1nc(COc2ccc(C(C)(C)c3cc(Cl)c(OCCCl)c(C#N)c3)cc2)co1 [Compound A126] , the value recorded as its IC50 is 500 to 2000 nM

Given item CN1C(=O)N(Cc2ccc(C(C)(C)c3cc(Cl)c(OCCCCl)c(Cl)c3)cc2)C(=O)C1(C)C [Compound B1] , the value recorded as its IC50 is 500 to 2000 nM

Given item CC(C)(c1ccc(OCc2cncnc2NS(C)(=O)=O)cc1)c1cc(Cl)c(OCCCl)c(C#N)c1 [Compound A148] , the value recorded as its IC50 is 500 to 2000 nM
